Biological target: Progesterone receptor (Homo sapiens, UniProt P06401)
Sequence (P06401 whole entry): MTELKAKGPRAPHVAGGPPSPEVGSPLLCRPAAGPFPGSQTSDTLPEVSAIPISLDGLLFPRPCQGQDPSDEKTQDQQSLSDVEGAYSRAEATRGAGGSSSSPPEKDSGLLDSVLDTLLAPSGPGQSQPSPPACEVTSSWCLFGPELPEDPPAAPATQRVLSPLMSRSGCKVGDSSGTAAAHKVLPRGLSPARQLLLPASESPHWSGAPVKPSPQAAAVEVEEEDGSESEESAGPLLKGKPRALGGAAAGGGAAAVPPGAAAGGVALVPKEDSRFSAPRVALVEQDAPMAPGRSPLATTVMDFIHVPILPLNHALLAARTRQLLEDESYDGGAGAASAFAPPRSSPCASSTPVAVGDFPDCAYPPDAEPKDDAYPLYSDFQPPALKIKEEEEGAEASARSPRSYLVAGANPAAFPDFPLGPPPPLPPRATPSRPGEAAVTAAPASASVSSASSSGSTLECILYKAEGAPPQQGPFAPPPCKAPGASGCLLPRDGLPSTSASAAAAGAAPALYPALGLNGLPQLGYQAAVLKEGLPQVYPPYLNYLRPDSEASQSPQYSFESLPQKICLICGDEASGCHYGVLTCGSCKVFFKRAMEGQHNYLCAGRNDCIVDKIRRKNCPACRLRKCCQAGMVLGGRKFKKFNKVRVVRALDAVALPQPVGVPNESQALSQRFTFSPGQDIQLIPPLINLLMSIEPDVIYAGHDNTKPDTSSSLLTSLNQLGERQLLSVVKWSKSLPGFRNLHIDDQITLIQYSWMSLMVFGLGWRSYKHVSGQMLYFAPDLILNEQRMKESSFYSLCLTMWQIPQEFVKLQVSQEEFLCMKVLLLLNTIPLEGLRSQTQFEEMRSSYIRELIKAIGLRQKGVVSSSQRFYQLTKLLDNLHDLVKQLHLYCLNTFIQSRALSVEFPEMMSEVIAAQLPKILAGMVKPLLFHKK
Readout name: Ki (nM)
Kindly provide the numeric value in nM only, without the unit symbol.

q: Write down the reported Ki (system: Progesterone receptor (Homo sapiens, UniProt P06401)) of "CC(C)(CNS(=O)(=O)CC(F)(F)F)[C@@H](c1ccccc1)c1ccc2c(cnn2-c2ccc(F)cc2)c1"
a: 406

====

Biological target: UniProt:P04150
Experiment: Transactivation activity at glucocorticoid receptor ligand binding domain (unknown origin) expressed in human Hela cells co-expressing GAL4 DNA binding domain assessed as NP-1-stimulated GRE activation by luciferase reporter gene assay
Assay type: cell-based
pEC50: −log10 of the molar value.
Readout name: pEC50

Previously resolved entries follow.
CC(C)(CNS(C)(=O)=O)[C@@H](c1ccccc1)c1ccc2c(cnn2-c2ccc(F)cc2)c1    6.83
CC(C)(CNC(=O)CC(F)(F)F)[C@@H](c1ccccc1)c1ccc2c(cnn2-c2ccc(F)cc2)c1    6.89
CC(CNC(=O)CC(F)(F)F)[C@@H](c1ccccc1)c1ccc2c(cnn2-c2ccc(F)cc2)c1 (single isomer, unassigned)    6.43
CC(CNS(C)(=O)=O)[C@@H](c1ccccc1)c1ccc2c(cnn2-c2ccc(F)cc2)c1 (stereo partly drawn)    7.62

[a] CC(CNC(=O)CC(F)(F)F)[C@@H](c1ccccc1)c1ccc2c(cnn2-c2ccc(F)cc2)c1 (stereo in doubt; 3i)
[b] CC(C)(CNC(=O)Cc1ccccc1)[C@@H](c1ccccc1)c1ccc2c(cnn2-c2ccc(F)cc2)c1
q: Field: lower pEC50 | Options: a / b Answer = label.
a: b
(b: 6.01, a: 7.68)

====

Target: Glucocorticoid receptor (Homo sapiens, UniProt P04150)
Sequence (P04150 whole entry): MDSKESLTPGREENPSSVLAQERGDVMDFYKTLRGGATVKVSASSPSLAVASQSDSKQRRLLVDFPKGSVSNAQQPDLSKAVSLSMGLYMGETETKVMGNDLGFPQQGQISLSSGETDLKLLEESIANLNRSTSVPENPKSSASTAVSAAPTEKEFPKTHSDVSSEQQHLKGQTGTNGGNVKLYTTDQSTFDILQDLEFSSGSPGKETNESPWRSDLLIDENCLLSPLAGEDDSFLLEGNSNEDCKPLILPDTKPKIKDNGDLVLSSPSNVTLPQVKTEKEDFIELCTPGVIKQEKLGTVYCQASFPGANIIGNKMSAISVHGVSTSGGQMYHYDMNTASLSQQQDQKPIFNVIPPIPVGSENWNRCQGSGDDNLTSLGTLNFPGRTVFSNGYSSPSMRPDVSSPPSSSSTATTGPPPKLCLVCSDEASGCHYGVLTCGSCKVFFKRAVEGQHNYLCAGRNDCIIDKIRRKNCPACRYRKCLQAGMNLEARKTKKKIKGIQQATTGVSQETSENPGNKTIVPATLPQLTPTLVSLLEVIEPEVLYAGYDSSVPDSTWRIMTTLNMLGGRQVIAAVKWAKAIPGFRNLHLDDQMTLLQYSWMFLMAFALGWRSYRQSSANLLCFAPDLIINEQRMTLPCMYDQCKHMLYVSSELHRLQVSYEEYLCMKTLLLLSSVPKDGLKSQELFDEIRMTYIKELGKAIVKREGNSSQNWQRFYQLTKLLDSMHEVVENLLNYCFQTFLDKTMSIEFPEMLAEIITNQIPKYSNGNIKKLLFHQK
Assay: Transrepression activity at glucocorticoid receptor in human A549 cells assessed as inhibition of PMA-stimulated AP1 response element by luciferase reporter gene assay
Type: cell-based
pEC50: −log10 of the molar value.
Readout name: pEC50

The cases that follow already have their pEC50 on record.
CC(C)(CNS(=O)(=O)CC(F)(F)F)[C@@H](c1ccccc1)c1ccc2c(cnn2-c2ccc(F)cc2)c1    7.69
CC(CNS(=O)(=O)CC(F)(F)F)[C@@H](c1ccccc1)c1ccc2c(cnn2-c2ccc(F)cc2)c1 (some centres not stated)    8.28
CC(C)(C)CC(=O)NCC(C)(C)[C@@H](c1ccccc1)c1ccc2c(cnn2-c2ccc(F)cc2)c1    6.67
CC(C)(CNS(C)(=O)=O)[C@@H](c1ccccc1)c1ccc2c(cnn2-c2ccc(F)cc2)c1    7.69
CC(C)(CNC(=O)CC(F)(F)F)[C@@H](c1ccccc1)c1ccc2c(cnn2-c2ccc(F)cc2)c1    7.91
CC(CNS(C)(=O)=O)[C@@H](c1ccccc1)c1ccc2c(cnn2-c2ccc(F)cc2)c1 (some centres not stated)    8.08

[P] CC(C)(C)NC(=O)NCC(C)(C)[C@@H](c1ccccc1)c1ccc2c(cnn2-c2ccc(F)cc2)c1
[Q] CC(CNC(=O)CC(F)(F)F)[C@@H](c1ccccc1)c1ccc2c(cnn2-c2ccc(F)cc2)c1 (stereo in doubt; 3i)
q: I'd appreciate it if you could identify which of P and Q has the greater pEC50. Indicate your choice by writing its label.
a: Q

[I] CC(C)C[C@@H](c1ccc2c(cnn2-c2ccc(F)cc2)c1)C(C)(C)CNC(=O)CC(F)(F)F
[II] CC(C)(CNC(=O)C(F)(F)F)[C@@H](c1ccccc1)c1ccc2c(cnn2-c2ccc(F)cc2)c1
q: // select label with min value of measured pEC50 from [ I , II ] Indicate which entry you chose by stating its label.
a: II
(II: 6.14, I: 7.21)

[a] CC(C)(CNS(=O)(=O)C1CC1)[C@@H](c1ccccc1)c1ccc2c(cnn2-c2ccc(F)cc2)c1
[b] CCCS(=O)(=O)NCC(C)(C)[C@@H](c1ccccc1)c1ccc2c(cnn2-c2ccc(F)cc2)c1
q: Could you point out whether the larger pEC50 belongs to a or to b ? Answer = label.
a: a
(a: 7.57, b: 6.84)

[P] CCS(=O)(=O)NCC(C)(C)[C@@H](c1ccccc1)c1ccc2c(cnn2-c2ccc(F)cc2)c1
[Q] CC(C)(C)C(=O)NCC(C)(C)[C@@H](c1ccccc1)c1ccc2c(cnn2-c2ccc(F)cc2)c1
[R] CC(C)(CNC(=O)Cc1ccccc1)[C@@H](c1ccccc1)c1ccc2c(cnn2-c2ccc(F)cc2)c1
[S] CCS(=O)(=O)NCC(C)[C@@H](c1ccccc1)c1ccc2c(cnn2-c2ccc(F)cc2)c1 (some centres not stated)
q: Hi! Can you put these in order of pEC50, lowest number first? Return the labels ranked in the requested order, please.
a: R, Q, P, S
(R: 5.60, Q: 7.11, P: 7.54, S: 8.37)

// provenance: ChEMBL document CHEMBL2424625
